# protocol_summary: PSAC antagonists in infected red cells, primary screen, cell-based, P. falciparum Indochina, OD700, 2 h (AID 1155);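 also: lysis reports solute entry through the parasite surface anion channel PSAC; channel blockers reduce lysis of infected cells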
# condition_description: P. falciparum Indochina infected erythrocytes, osmotic lysis OD700, called active from +8 up or from −8 down
Active and inactive are the calls of the source.
Labels: TRUE = active, FALSE = inactive

CCOC(=O)C[C@H]1[C@H](OC(=O)Cc2ccc3c(c2)OCO3)[C@@H](NC(=O)CC(C)C)c2cc(OCCCO)ccc2N1C(=O)c1ccccc1
FALSE
O=C(N1CCCCC1)[C@@]1(CCS(=O)(=O)c2ccccc2)N=C(c2ccc(OCCCO)cc2)O[C@H]1c1ccccc1
TRUE
COC(=O)C[C@H]1O[C@]2(C(=O)N(Cc3ccccc3)c3ccc(I)cc32)[C@@H](C)[C@@H]1[Si](C)(C)c1ccc(OC)cc1
FALSE
CN(C)c1ccc(C(O)C2C=CC3C(=O)NC(=O)C3N2Nc2ccc(Cl)cc2Cl)cc1 (centres undefined)
FALSE

* * *

# target_under_test: Albumin (Bos taurus)
# protocol_summary: bovine serum albumin binders on microarray, profiling panel, artefact control for SMM control protein annotation, biochemical, small-molecule microarray, Alexa647 label, 635/667 nm fluorescence (AID 1118);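 also: score merges 667 nm emission intensity and signal-to-noise per printed compound spot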
# condition_description: BSA-A647 binding, fluorescence 635 nm, higher = more signal
# reported composite z-score; entries follow
endpoint_name: composite z-score

C=CC[C@]1(C(=O)OC)N=C(c2ccc(OCCCO)cc2)O[C@H]1c1ccccc1CN=[N+]=[N-]
-0.573
CC(=O)NCCCC[C@@H]1NC(=O)[C@H]2C[C@@H](C(=O)NCCCCCCN(C)C)[C@@H](c3ccc(O)cc3)N2C1=O
-0.546
COCCOC(=O)N1C(=O)[C@@]2(c3cc(C#CCNC(N)=O)ccc31)[C@H](c1ccccc1OCCO)N1[C@H](c3ccccc3)[C@H](c3ccccc3)OC(=O)[C@H]1[C@@H]2C(=O)NC[C@H](O)c1ccccc1
0.679

* * *

# protocol_summary: small-molecule microarray binders of probe aLefty2, primary screen, biochemical, biotinylated probe, 635/667 nm fluorescence (AID 1094);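 also: score merges spot fluorescence near 667 nm with spot signal-to-noise ratio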
# condition_description: higher = more signal
Output schema: class label derived from composite z-score. Mapping: lower: < -0.08; middle: ≥ -0.08 and < 0.07; upper: ≥ 0.07

O=C1O[C@@H](c2ccccc2)[C@@H](c2ccccc2)N2[C@@H](c3ccccc3OCCO)[C@]3(C(=O)Nc4ccc(C#CC5=CCCCC5)cc43)[C@@H](C(=O)O)[C@H]12
upper
O=C1O[C@@H](c2ccccc2)[C@@H](c2ccccc2)N2[C@@H](c3ccc(O)cc3)[C@]3(C(=O)Nc4ccccc43)[C@@H](C(=O)N3CCN(c4ncccn4)CC3)[C@H]12
lower
C=CCC(OC(C)=O)[C@@H]1[C@@H](N(Cc2cc3ccccc3o2)C(=O)c2ccc(C)cc2)c2cc(OCCCO)ccc2N1C(=O)c1ccc2ccccc2n1 (stereo partly specified)
lower
COC(=O)Cn1c(C(=O)N2CCCC2)cc2c1C[C@H]1CN(C(=O)c3ccccc3)[C@@](Cc3ccc(OC)cc3)(C(=O)OC)[C@@H]21
upper
NC(=O)NCC#Cc1ccc2c(c1)[C@]1(C(=O)N2)[C@H](C(=O)N2CCCCCCC2)[C@H]2C(=O)O[C@H](c3ccccc3)[C@H](c3ccccc3)N2[C@@H]1c1ccccc1OCCO
upper
COCCOC(=O)N1C(=O)[C@@]2(c3cc(C#CCNC(N)=O)ccc31)[C@H](c1ccc(OCCO)cc1)N1[C@H](c3ccccc3)[C@H](c3ccccc3)OC(=O)[C@H]1[C@@H]2C(=O)Nc1nc2ccccc2s1
upper
CCOC(=O)C[C@H]1[C@H](OC(=O)c2ccccc2-c2ccccc2)[C@@H](NC(=O)c2ccc(-c3ccccc3)cc2)c2cc(OCCCO)ccc2N1C(=O)Cc1ccc(OC)cc1
middle
O=C1O[C@@H](c2ccccc2)[C@@H](c2ccccc2)N2[C@@H](c3ccc(O)cc3)[C@]3(C(=O)Nc4ccc(C#CC5(O)CCCCCC5)cc43)[C@@H](C(=O)Nc3nc4ccccc4s3)[C@H]12
upper
CC(C)C[C@@H]1NC(=O)[C@H](CC(C)C)NC(=O)[C@@]23C(=O)N[C@@H](Cc4ccccc4)C2[C@H](C)[C@@]2(C)O[C@H]2C3/C=C/CC/C=C/CNC1=O (stereo partly specified)
lower
CC(=O)NCCCC[C@@H]1NC(=O)[C@H]2C[C@@H](C(=O)NCCCCCCN(C)C)[C@@H](c3cccc(OCCO)c3)N2C1=O
upper
CO[C@H]1COC(=O)CC=C[C@H](C)COC(=O)[C@@H](OCc2ccccc2)C=C[C@@H]1C
lower
CO[C@H]1COC(=O)[C@H](C)COC(=O)[C@H](Cc2ccccc2)NC(=O)CC=C[C@H]1C
middle
C=C(/C(=C/C[C@@H](OC(=O)c1ccncc1)c1ccc(CO)o1)c1cnc2ccccc2c1)C(C)C
middle
COC(=O)C1=CC(c2ccc(CO)cc2)=CC(c2cccs2)N(Cc2cccc(OC(F)(F)F)c2)C=C1C(=O)OC (stereo unspecified)
middle
CO[C@@H]1COC(=O)[C@@H]2CCCN2C(=O)CC=C[C@@H](C)[C@H](OC)COC(=O)[C@@H]2CCCN2C(=O)CC=C[C@H]1C
lower
COCCOC(=O)N1C(=O)[C@@]2(c3cc(C#CC4=CCCCC4)ccc31)[C@H](C(=O)NC[C@H](O)c1ccccc1)[C@H]1C(=O)O[C@H](c3ccccc3)[C@H](c3ccccc3)N1[C@@H]2c1ccc(OCCO)cc1
middle
CN1C2C=C(c3ccc(CO)cc3)C(C3C(=O)N(C(N)=O)C(=O)C32)C1c1cccs1 (stereo unspecified)
middle
CCN1C(C)=C(C(=O)OC)[C@@H](c2ccccc2)N2C(=O)[C@@]3(C(=O)OC)O[C@@]12[C@@H]1C(=O)N(c2ccccc2)C(=O)[C@@H]13
lower
C[N+](C)(C)CCCC[C@@H]1NC(=O)[C@H]2C[C@@H](C(=O)NCc3ccc(F)cc3)[C@@H](c3cccc(OCCO)c3)N2C1=O
lower
C=CCN1C(=O)[C@@]2(O[C@@H](CCn3cc([C@H](O)c4ccccc4)nn3)[C@H]([Si](C)(C)c3ccc(OC)cc3)[C@H]2C)c2cc(N3CCOC3=O)ccc21
middle
C=C(CCCC)/C(=C/C[C@@H](OC(=O)c1ccncc1)c1ccc(CO)o1)c1cnc2ccccc2c1
middle
COCCOC(=O)N1C(=O)[C@@]2(c3cc(C#CC4(O)CCCCCC4)ccc31)[C@H](C(=O)N1CCCCCCC1)[C@H]1C(=O)O[C@H](c3ccccc3)[C@H](c3ccccc3)N1[C@@H]2c1ccc(O)cc1
upper
CCCC=C(CCC)[C@@H](NC(=O)c1ccc(C(F)(F)F)cc1)c1ccccc1
middle
CO[C@H]1COC(=O)[C@H](CCSC)NC(=O)CC=C[C@@H](C)COC(=O)[C@@H](OCc2ccccc2)C=C[C@@H]1C
lower
COc1ccc(NN2C(C(O)c3cc(OC)c(OC)c(OC)c3)C=CC3C(=O)N(C4CCCCC4)C(=O)C32)cc1 (stereo unspecified)
upper
COc1cc(CO)cc(I)c1O[C@H]1C=C(C(=O)NCCO)C[C@@H](NCCc2c[nH]c3ccccc23)[C@@H]1O
upper

* * *

# Tested on: Chordin-like protein 2 (CHRDL2)
# protocol_summary: CHRDL2 small-molecule binders, primary screen, biochemical, small-molecule microarray, 635 nm fluorescence (AID 1126);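 also: printed compound slides probed with Chrdl2 protein at 4 µg/mL for 1 h at 4 C; score merges 667 nm emission intensity with signal to noise over three replicate slides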
# condition_description: small-molecule microarray binding, fluorescence 635 nm; higher = more signal
Think of 0.3 as a floor: if composite z-score stands on it or above, it is True; beneath it, False.

C[N+](C)(C)CCCCNC(=O)[C@H]1C[C@H]2C(=O)NCC(=O)N2[C@H]1c1cccc(OCCO)c1
True
C#C[C@H](O[Si](C#Cc1ccccc1)(C(C)C)C(C)C)c1ccccc1
False
COc1ccc(-c2cc3c(c(-c4ccccc4)n2)[Si](C(C)C)(C(C)C)O[C@H]3c2ccccc2)cn1
False
C=CC[C@]1(C(N)=O)N=C(c2ccc(OCCCO)cc2)O[C@H]1c1ccccc1CN=[N+]=[N-]
False
C/C(=N\O)C(=O)NCCCCCNC(=O)OCc1ccccc1
True
CC(C)[Si](OCCCNS(=O)(=O)c1ccc(Br)cc1)(C(C)C)C(C)C
False
CO[C@H]1O[C@H](CO)[C@@H](OC(=O)Nc2ccc3c(c2)OCO3)[C@H](OC(=O)Nc2ccccc2)[C@@H]1OC(=O)Nc1ccccc1
False
O=C1O[C@H](c2ccccc2)[C@H](c2ccccc2)N2[C@H]1[C@@H](C(=O)Nc1nc3ccccc3s1)[C@]1(C(=O)Nc3ccc(C#CC4(O)CCCCCC4)cc31)[C@H]2c1ccc(O)cc1
True
Cc1ccc(S(=O)(=O)N[C@H]2COC(=O)CC=C[C@H](C)COC(=O)N[C@@H](C)C(=O)CC=C[C@@H]2C)cc1
True
C[N+](C)(C)CCCCNC(=O)[C@@H]1C[C@@H]2C(=O)N3CCC[C@H]3C(=O)N2[C@@H]1c1cccc(OCCO)c1
True
C=CC[C@]1(C(=O)O)N=C(c2ccc(OCCCO)cc2)O[C@H]1c1ccccc1N=[N+]=[N-]
False
COC(=O)[C@@]1(Cc2ccccc2)[C@H]2c3cc(C(=O)N4CCCC4)n(CCN4CNCC4=O)c3C[C@H]2CN1C(=O)c1ccccc1
False
CN1CCC(CCCO)=CC1C1CC1 (stereo not given)
True
C#CCCCON=C1C[C@@H](O)[C@@H](O)[C@@H]2[C@@H]3C(=O)N(Cc4ccc5c(c4)OCO5)C(=O)[C@@H]3CC[C@@H]12
False
CCCNC(=O)[C@@]1(Sc2ccc(C)cc2)CC(=O)N(Cc2ccccc2Cl)[C@@H]1c1ccc(CO)cc1
True
CN(C)CCCC[C@@H]1NC(=O)[C@@H]2C[C@H](C(=O)NCCCCCNC(=O)CS)[C@H](c3ccc(O)cc3)N2C1=O
True
C[C@@H]1NC(=O)[C@H](Cc2ccccc2)NC(=O)[C@@]23C(=O)N[C@@H](Cc4ccccc4)C2[C@H](C)[C@@]2(C)O[C@H]2C3/C=C/C/C=C\CNC1=O (stereo not given in full)
True
CC(C)(C)OC(=O)CC[C@]1(C(=O)N2CCCCC2)N=C(c2ccc(OCCCO)cc2)O[C@H]1c1ccccc1
False
C[C@H]1C2[C@H](Cc3ccccc3)NC(=O)[C@]23C(=O)N[C@H](Cc2ccccc2)C(=O)N[C@@H](Cc2ccccc2)C(=O)NC/C=C\C/C=C/C3[C@@H]2O[C@]12C (stereo not given in full)
True
CCCNC(=O)[C@@H]1c2ccccc2C(=O)N(Cc2cc(F)cc(C(F)(F)F)c2)[C@H]1c1ccc(CO)cc1
True
CC(C)CN1C(=O)[C@@]2(Cc3ccccc31)c1ccccc1C(=O)N(C1CCCCC1)[C@H]2c1ccc(CO)cc1
False
O=C1NC(=O)C2C1C=CC(C(O)C=Cc1ccc([N+](=O)[O-])cc1)N2Nc1ccccn1 (stereo not given)
True
COC(=O)c1c(CC[C@@H](CO)NC(=O)N[C@H](Cn2cc(-c3cncn3C)nn2)C(C)C)oc(C(C)=O)c1C(=O)OC
False
CN(C)c1ccc(C(O)C2C=CC3C(=O)NC(=O)C3N2Nc2ccc(Cl)cc2Cl)cc1 (stereo not given)
False
CO[C@H]1COC(=O)[C@H](CCSC)NC(=O)CC=C[C@@H](C)COC(=O)[C@@H](OCc2ccccc2)C=C[C@@H]1C
True
Cc1ccc(S[C@]2(C(=O)NCCCN(C)C)CC(=O)N(C3CCCCC3)[C@@H]2c2ccc(CO)cc2I)cc1
False
O=C1c2ccccc2[C@](Cc2ccccc2I)(C(=O)NCc2ccccc2)[C@H](c2ccc(CO)cc2)N1Cc1ccccc1C(F)(F)F
False
C=C(C(=O)CC[C@H](OC(=O)c1ccccc1-c1ccccc1C(=O)O)c1ccc(CO)o1)C(C)C
True
COCCOC(=O)N1C(=O)[C@@]2(c3cc(C#CCCO)ccc31)[C@H](c1ccc(O)cc1)N1[C@H](c3ccccc3)[C@H](c3ccccc3)OC(=O)[C@H]1[C@@H]2C(=O)Nc1nc2ccccc2s1
True

Reference source for all entries: PubChem BioAssay
